test: chemical genetic growth profiling, strain panel (AID 1159580);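 further: tested at 20 µM; growth read once vehicle control cultures reached saturation at 30 °C; 1 = growth at the plate median or of vehicle wells; lower values mean less growth of the strain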; details: S. cerevisiae deletion strains, growth OD, locus YEL037C, strain rad23
About 2,000 (36%) of roughly 5,500 compounds were called active. Not shown: some 18% with an inconclusive outcome. No stated cut-off is given here; in the data, active means normalized growth mostly below about 0.91 (no sharp cut-off); inconclusive means no clear call, values can overlap the other calls; inactive means mostly above about 0.92. The list shows a part of the results.
Your reply should match one of these outcome classes. label 1 (active), label 0 (inactive)

Recorded results for 5 compounds are shown here.
O=c1[nH]c(=O)n(C2C[C@H](O)[C@@H](CO)O2)cc1C(F)(F)F (stereo partly specified): label 0
COc1ccc(CCC(=O)c2c(O)cc(O[C@@H]3O[C@H](CO)C(O)[C@H](O)C3O[C@@H]3O[C@@H](C)[C@H](O)[C@@H](O)[C@H]3O)cc2O)cc1O (stereo partly specified): label 0
CC(=O)O[C@@H]1CC2C(C)(C)[C@H](O)C=C[C@]2(C)C2CC[C@@]3(C)[C@H](c4ccoc4)OC(=O)C4OC43[C@@]21C (stereo partly specified): label 0
CCCn1c(=O)c2[nH]c(C3CCCC3)nc2n(CCC)c1=O: label 0
C=CCS(=O)C[C@H](N)C(=O)O (stereo partly specified): label 0

Test call, this compound: Clc1ccccc1CN1CCc2sccc2C1
label 0

Test call, this compound: CC(C)=CC1C(C(=O)OCc2cccc(Oc3ccccc3)c2)C1(C)C (stereo unspecified)
label 0
